Overview of recorded inhibition at 0.1 µM for various molecules
TARGET OR TEST SYSTEM: N-type calcium channel (Homo sapiens (Human))
EXPERIMENT SUMMARY: Automated electrophysiology assay (QPatch-HT whole-cell patch clamp)
Assay type: cell-based
MEASUREMENT CONTEXT: low-frequency stimulation (1st pulse of train), read-out: QPatch at Low Frequency % Inhibition at 0.1 μM
VALUE KIND: inhibition at 0.1 µM (%)

* COc1ccccc1-n1nc(OC2CN(C(=O)N(C)OC)C2)cc1-c1ccc(Cl)cc1 | -24
* CC(C)Oc1ccccc1-n1nc(OC2CCN(S(C)(=O)=O)CC2)cc1-c1ccc(Cl)cc1 | 24
* COc1ccccc1-n1nc(OC2CN(S(C)(=O)=O)C2)cc1-c1ccc(Cl)cc1 | 37
* COc1ccccc1-n1nc(OC2CCN(S(=O)(=O)C(C)C)CC2)cc1-c1ccc(Cl)cc1 | 15
* COc1ccccc1-n1nc(OC2CN(S(=O)(=O)c3c(C)noc3C)C2)cc1-c1ccc(Cl)cc1 | 30
* COc1ccc(-c2cc(OC3CC(C)(C)OC(C)(C)C3)nn2-c2ccccc2OC)cc1 | 28
* COc1ccccc1-n1nc(OC2CCN(S(=O)(=O)C3CC3)CC2)cc1-c1ccc(Cl)cc1 | 25
* COc1ccccc1-n1nc(OC2CC(C)(C)OC(C)(C)C2)cc1-c1ccc(Cl)cc1 | 11

====

TARGET OR TEST SYSTEM: N-type calcium channel (α1B (Cav2.2), β3 and α2δ subunits) in stable HEK cell line (Homo sapiens (Human))
EXPERIMENT SUMMARY: Functional assay (FDSS calcium mobilization): antagonism of N-type calcium channel
Format: cell-based
MEASUREMENT CONTEXT: KCl (50 mM) depolarization, six-point concentration-response
pIC50: −log10 of the molar value.
VALUE KIND: pIC50

- COc1ccccc1-n1nc(OC2CN(S(=O)(=O)C(C)C)C2)cc1-c1ccc(Cl)cc1 [Compound 25]: 7.44
- COc1ccccc1-n1nc(OC2CCN(S(=O)(=O)C(C)C)CC2)cc1-c1ccc(Cl)cc1 [Compound 21]: 7.44
- CC(C)Oc1ccccc1-n1nc(OC2CCN(S(=O)(=O)C(C)C)CC2)cc1-c1ccc(Cl)cc1 [Compound 28]: 8.15
- COc1ccccc1-n1nc(OC2CN(S(C)(=O)=O)C2)cc1-c1ccc(Cl)cc1 [Compound 26]: 7.51
- COc1ccccc1-n1nc(O[C@H]2CC[C@@H](NC(=O)OC(C)(C)C)CC2)cc1-c1ccc(Cl)cc1 [Compound 11]: 7.21
- COc1ccccc1-n1nc(OC2CC(C)(C)OC(C)(C)C2)cc1-c1ccc(Cl)cc1 [Compound 23]: 8.12
- COc1ccccc1-n1nc(OC2CCOCC2)cc1-c1ccc(Cl)cc1 [Compound 6]: 7.82
- COc1ccccc1-n1nc(OC2CCS(=O)(=O)CC2)cc1-c1ccc(Cl)cc1 [Compound 10]: 7.52

====

TARGET OR TEST SYSTEM: N-type calcium channel (α1B (Cav2.2), β3 and α2δ subunits) in stable HEK cell line (Homo sapiens (Human), UniProt Q00975)
Sequence (Q00975 whole entry): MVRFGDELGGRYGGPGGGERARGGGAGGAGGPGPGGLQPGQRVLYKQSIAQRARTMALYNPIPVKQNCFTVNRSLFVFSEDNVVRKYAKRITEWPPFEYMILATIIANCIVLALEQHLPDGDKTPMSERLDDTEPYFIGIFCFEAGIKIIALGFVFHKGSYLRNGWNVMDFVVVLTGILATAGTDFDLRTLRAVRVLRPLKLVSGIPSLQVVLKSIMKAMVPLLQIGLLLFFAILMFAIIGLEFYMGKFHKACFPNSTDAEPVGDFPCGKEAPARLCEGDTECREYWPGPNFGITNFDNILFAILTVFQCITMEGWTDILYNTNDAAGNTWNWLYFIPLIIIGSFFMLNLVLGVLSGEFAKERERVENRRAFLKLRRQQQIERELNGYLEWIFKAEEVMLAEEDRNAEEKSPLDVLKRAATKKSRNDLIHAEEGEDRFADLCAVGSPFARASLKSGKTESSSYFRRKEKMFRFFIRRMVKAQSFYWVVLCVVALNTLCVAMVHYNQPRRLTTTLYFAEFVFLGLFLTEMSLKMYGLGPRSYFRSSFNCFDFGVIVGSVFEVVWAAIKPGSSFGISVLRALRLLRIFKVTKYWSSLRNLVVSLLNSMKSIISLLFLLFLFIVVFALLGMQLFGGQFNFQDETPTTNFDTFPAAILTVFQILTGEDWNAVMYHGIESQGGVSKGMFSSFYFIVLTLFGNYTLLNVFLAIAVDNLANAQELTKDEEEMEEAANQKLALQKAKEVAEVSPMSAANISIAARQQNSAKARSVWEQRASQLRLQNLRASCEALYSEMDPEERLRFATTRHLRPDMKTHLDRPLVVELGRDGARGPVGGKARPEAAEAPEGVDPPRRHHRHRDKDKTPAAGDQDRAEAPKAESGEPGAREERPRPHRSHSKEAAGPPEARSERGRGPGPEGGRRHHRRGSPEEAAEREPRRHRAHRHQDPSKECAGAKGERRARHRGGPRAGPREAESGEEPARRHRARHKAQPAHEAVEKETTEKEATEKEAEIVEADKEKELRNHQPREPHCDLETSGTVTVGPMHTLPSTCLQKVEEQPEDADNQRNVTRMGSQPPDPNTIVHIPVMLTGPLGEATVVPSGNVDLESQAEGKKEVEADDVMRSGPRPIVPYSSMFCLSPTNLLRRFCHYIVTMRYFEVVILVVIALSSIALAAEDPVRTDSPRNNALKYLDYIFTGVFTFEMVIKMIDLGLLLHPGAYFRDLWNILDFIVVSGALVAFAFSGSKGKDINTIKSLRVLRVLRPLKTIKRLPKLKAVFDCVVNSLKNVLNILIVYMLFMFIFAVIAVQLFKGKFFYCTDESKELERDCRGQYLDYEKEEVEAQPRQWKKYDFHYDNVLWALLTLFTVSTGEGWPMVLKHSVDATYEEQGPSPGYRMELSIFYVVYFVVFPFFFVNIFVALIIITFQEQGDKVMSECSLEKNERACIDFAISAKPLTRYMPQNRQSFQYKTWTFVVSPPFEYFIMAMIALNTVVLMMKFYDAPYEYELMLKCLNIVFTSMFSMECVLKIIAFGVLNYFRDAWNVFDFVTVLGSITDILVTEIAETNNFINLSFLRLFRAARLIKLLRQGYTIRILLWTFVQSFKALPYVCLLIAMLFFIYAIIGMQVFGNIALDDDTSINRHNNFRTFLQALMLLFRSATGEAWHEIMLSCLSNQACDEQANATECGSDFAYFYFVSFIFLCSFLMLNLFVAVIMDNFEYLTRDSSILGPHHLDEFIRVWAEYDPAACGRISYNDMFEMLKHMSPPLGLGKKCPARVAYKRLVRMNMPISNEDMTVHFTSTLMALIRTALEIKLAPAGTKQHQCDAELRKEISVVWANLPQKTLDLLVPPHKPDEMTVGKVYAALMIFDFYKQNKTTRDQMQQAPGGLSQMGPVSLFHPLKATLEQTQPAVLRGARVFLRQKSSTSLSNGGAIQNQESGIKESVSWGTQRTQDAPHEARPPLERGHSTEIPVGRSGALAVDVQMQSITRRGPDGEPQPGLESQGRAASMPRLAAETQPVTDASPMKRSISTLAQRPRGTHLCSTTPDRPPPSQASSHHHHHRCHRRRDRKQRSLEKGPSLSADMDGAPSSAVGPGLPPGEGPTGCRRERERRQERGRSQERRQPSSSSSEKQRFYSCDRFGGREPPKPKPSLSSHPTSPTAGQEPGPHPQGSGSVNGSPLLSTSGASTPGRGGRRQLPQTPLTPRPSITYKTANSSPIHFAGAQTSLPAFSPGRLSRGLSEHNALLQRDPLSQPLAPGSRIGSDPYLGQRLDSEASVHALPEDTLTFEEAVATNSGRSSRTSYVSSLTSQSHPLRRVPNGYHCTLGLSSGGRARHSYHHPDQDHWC
Sequence (P54284 whole entry partner): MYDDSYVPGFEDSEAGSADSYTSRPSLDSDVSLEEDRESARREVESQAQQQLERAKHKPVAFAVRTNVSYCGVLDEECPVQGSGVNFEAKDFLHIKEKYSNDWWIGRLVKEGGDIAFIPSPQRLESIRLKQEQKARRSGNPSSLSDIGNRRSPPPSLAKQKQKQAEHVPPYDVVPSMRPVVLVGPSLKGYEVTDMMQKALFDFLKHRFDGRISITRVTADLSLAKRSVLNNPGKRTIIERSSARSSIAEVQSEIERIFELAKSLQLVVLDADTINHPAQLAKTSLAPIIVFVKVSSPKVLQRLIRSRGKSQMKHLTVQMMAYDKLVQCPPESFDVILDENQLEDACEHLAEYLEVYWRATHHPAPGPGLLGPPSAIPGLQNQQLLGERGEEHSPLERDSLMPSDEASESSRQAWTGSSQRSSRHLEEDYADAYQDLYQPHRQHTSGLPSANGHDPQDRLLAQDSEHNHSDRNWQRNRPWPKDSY
Sequence (P54289 25-1103 partner): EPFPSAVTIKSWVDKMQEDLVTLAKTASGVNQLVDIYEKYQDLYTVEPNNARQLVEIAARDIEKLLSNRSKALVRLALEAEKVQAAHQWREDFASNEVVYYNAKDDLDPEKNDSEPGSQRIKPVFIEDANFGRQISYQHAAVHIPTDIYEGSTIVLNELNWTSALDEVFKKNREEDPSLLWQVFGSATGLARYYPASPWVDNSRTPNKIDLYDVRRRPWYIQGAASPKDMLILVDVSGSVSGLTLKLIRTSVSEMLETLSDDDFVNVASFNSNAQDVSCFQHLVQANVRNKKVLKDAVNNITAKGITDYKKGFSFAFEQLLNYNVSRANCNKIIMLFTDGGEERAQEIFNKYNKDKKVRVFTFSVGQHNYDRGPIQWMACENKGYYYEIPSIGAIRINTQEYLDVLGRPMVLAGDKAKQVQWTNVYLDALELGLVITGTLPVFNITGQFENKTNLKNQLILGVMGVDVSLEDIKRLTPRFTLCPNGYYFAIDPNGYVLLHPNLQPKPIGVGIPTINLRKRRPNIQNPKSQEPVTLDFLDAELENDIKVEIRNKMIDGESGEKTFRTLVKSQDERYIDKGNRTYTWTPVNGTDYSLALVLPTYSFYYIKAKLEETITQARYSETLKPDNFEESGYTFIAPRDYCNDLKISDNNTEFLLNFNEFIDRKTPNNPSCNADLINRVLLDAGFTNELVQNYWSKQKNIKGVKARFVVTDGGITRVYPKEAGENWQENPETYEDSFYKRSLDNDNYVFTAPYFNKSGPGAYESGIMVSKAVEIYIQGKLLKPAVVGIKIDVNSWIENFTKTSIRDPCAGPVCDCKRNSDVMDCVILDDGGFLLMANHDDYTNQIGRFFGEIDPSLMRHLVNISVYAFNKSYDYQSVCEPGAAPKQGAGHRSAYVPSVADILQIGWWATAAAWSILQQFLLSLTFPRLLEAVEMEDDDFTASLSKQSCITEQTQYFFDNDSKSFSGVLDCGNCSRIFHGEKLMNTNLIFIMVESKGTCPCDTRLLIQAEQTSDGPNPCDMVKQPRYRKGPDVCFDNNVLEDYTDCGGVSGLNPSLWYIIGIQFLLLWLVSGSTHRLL
EXPERIMENT SUMMARY: Functional assay (FDSS calcium mobilization): antagonism of N-type calcium channel
Type: cell-based
MEASUREMENT CONTEXT: FDSS, 0.33 μM compound
VALUE KIND: % Inhibition (%) at 0.33 μM

- COc1ccccc1-n1nc(O[C@H]2CC(C)(C)[S@+]([O-])C(C)(C)C2)cc1-c1ccc(Cl)cc1.O=C(O)C(F)(F)F: 98
- COc1ccc(-c2cc(O[C@H]3CC(C)(C)[S@@+]([O-])C(C)(C)C3)nn2-c2ccccc2OC)cc1: 91
- COc1ccccc1-n1nc(O[C@H]2CC(C)(C)[S@+]([O-])C(C)(C)C2)cc1-c1ccc(C#N)cc1: 90
- COc1ccccc1-n1nc(O[C@H]2CC(C)(C)[S@@+]([O-])C(C)(C)C2)cc1-c1ccc(Cl)cc1.O=C(O)C(F)(F)F: 99
- COc1ccc(-c2cc(O[C@H]3CC(C)(C)[S@+]([O-])C(C)(C)C3)nn2-c2ccccc2OC)cc1: 94

====

TARGET OR TEST SYSTEM: N-type calcium channel (Homo sapiens (Human))
EXPERIMENT SUMMARY: Automated electrophysiology assay (QPatch-HT whole-cell patch clamp)
Type: cell-based
MEASUREMENT CONTEXT: high-frequency stimulation (15th pulse of train, 5 Hz), read-out: QPatch at High Frequency % Inhibition at 0.1 μM
# Lookup of reported inhibition at 0.1 µM keyed by entry
VALUE KIND: inhibition at 0.1 µM (%)

- COc1ccccc1-n1nc(OC2CCN(S(=O)(=O)C3CC3)CC2)cc1-c1ccc(Cl)cc1 [Compound 15]: 55
- COc1ccccc1-n1nc(OC2CC(C)(C)OC(C)(C)C2)cc1-c1ccc(Cl)cc1 [Compound 23]: 37
- COc1ccccc1-n1nc(OC2CN(S(C)(=O)=O)C2)cc1-c1ccc(Cl)cc1 [Compound 26]: 40
- CC(C)Oc1ccccc1-n1nc(OC2CCN(S(C)(=O)=O)CC2)cc1-c1ccc(Cl)cc1 [Compound 20]: 37
- COc1ccccc1-n1nc(OC2CCN(S(=O)(=O)C(C)C)CC2)cc1-c1ccc(Cl)cc1 [Compound 21]: 23
- COc1ccccc1-n1nc(OC2CN(C(=O)N(C)OC)C2)cc1-c1ccc(Cl)cc1 [Compound 29]: 1
- COc1ccccc1-n1nc(OC2CN(S(=O)(=O)c3c(C)noc3C)C2)cc1-c1ccc(Cl)cc1 [Compound 30]: 53
- COc1ccc(-c2cc(OC3CC(C)(C)OC(C)(C)C3)nn2-c2ccccc2OC)cc1 [Compound 31]: 44

====

# maps each entry to its pIC50
TARGET OR TEST SYSTEM: N-type calcium channel (α1B (Cav2.2), β3 and α2δ subunits) in stable HEK cell line (Homo sapiens (Human), UniProt Q00975)
EXPERIMENT SUMMARY: Functional assay (FDSS calcium mobilization): antagonism of N-type calcium channel
MEASUREMENT CONTEXT: KCl (50 mM) depolarization, six-point concentration-response
pIC50: −log10 of the molar value.
VALUE KIND: pIC50

* COc1ccccc1-n1nc(OC2CCN(C(=O)OC(C)(C)C)CC2)cc1-c1ccc(Cl)cc1 | 7.52
* COc1ccccc1-n1nc(OC2CN(S(=O)(=O)c3c(C)noc3C)C2)cc1-c1ccc(Cl)cc1 | 8.10
* CC(C)Oc1ccccc1-n1nc(OC2CCN(S(C)(=O)=O)CC2)cc1-c1ccc(Cl)cc1 | 7.67
* COc1ccccc1-n1nc(OC2CC(C)(C)S(=O)(=O)C(C)(C)C2)cc1-c1ccc(C#N)cc1 | 8.62
* CCc1ccccc1-n1nc(OC2CCN(C(=O)OC(C)(C)C)CC2)cc1-c1ccc(Cl)cc1 | 7.30
* COc1ccccc1-n1nc(OC2CCN(S(C)(=O)=O)CC2)cc1-c1ccc(Cl)cc1 | 7.82
* COc1ccccc1-n1nc(OC2CCN(C(C)=O)CC2)cc1-c1ccc(Cl)cc1 | 7.59
* COc1ccccc1-n1nc(OC2CN(C(=O)c3ccccc3)C2)cc1-c1ccc(Cl)cc1 | 7.07
* COc1ccccc1-n1nc(OC2CCN(S(=O)(=O)C3CC3)CC2)cc1-c1ccc(Cl)cc1 | 8.05
* COc1ccccc1-n1nc(OC2CCSCC2)cc1-c1ccc(Cl)cc1 | 7.55
* COc1ccccc1-n1nc(OC2CCC(F)(F)CC2)cc1-c1ccc(Cl)cc1 | 7.39
* COc1ccc(-c2cc(O[C@H]3CC(C)(C)[S@+]([O-])C(C)(C)C3)nn2-c2ccccc2OC)cc1 | 8.35
* CCc1ccccc1-n1nc(OC2CCN(S(C)(=O)=O)CC2)cc1-c1ccc(Cl)cc1 | 7.01
* COc1ccccc1-n1nc(O[C@H]2CC(C)(C)[S@+]([O-])C(C)(C)C2)cc1-c1ccc(Cl)cc1.O=C(O)C(F)(F)F | 8.57
* COc1ccccc1-n1nc(OC2CN(C(=O)OC(C)(C)C)C2)cc1-c1ccc(Cl)cc1 | 7.17
* COc1ccc(-c2cc(O[C@H]3CC(C)(C)[S@@+]([O-])C(C)(C)C3)nn2-c2ccccc2OC)cc1 | 8.12
* COc1ccccc1-n1nc(OC2CCC(=O)CC2)cc1-c1ccc(Cl)cc1 | 7.55
* COc1ccccc1-n1nc(OC2CN(C(=O)N(C)OC)C2)cc1-c1ccc(Cl)cc1 | 7.85
* COc1ccccc1-n1nc(O[C@H]2CC(C)(C)[S@+]([O-])C(C)(C)C2)cc1-c1ccc(C#N)cc1 | 7.85
* COc1ccc(-c2cc(OC3CC(C)(C)SC(C)(C)C3)nn2-c2ccccc2OC)cc1 | 8.22
* COc1ccccc1-n1nc(OC2CCN(C(=O)C(F)(F)F)CC2)cc1-c1ccc(Cl)cc1 | 7.50
* COc1ccccc1-n1nc(OC2CC(C)(C)SC(C)(C)C2)cc1-c1ccc(Cl)cc1 | 8.23
